# ASSAY SYSTEM: T1, Boi1, P38041
# T1 sequence (P38041 1-86, looked up): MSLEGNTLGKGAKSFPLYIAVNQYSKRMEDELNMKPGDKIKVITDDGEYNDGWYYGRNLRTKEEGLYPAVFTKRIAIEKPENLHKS
# PROTOCOL SUMMARY: SPOT array
# MEASUREMENT SETUP: median of control spots 1162
// values below are reported SPOT intensity
RECORDED METRIC: SPOT intensity

> print(dat)
             binder  recorded.metric  numeric.value
 1  HKVLRPFLLRRLKKD   SPOT intensity              1
 2  IKTRSVPKIPSIESV   SPOT intensity              1
 3  ALFRLSFFFPLDPAY   SPOT intensity            192
 4  VPPVPLPFGIPPFPM   SPOT intensity              0
 5  EVTPKVPERPSRRKT   SPOT intensity              0
 6  APKREAPKPPANTSP   SPOT intensity              0
 7  NNNKMRPHLPPLSSG   SPOT intensity              3
 8  ISRRRLPVIMHRLKM   SPOT intensity              1
 9  DAPASKPSVPPRNYF   SPOT intensity              0
10  NPNRRAPRRPLSTQH   SPOT intensity             28
11  FTLPPPPPPPGLDEL   SPOT intensity              0
12  GKLKHIPRRPYEIER   SPOT intensity              0
13  FIRKRAPTPPAPSRS   SPOT intensity              3
14  FPPKRKPLLRPQRSD   SPOT intensity              6
15  NVLRKILEIPLHSFS   SPOT intensity              6
16  IFLRISINFPLNYPN   SPOT intensity             24
17  ATKSASPTLPTRRSR   SPOT intensity              3
18  RKRRTHLRLPLIRSN   SPOT intensity              2
19  AIPPPVPNRPGGTTN   SPOT intensity              1
20  RHLKLVPSTPMDIPW   SPOT intensity              0
21  RRASLFPRDPKRLRP   SPOT intensity              7
